Recorded melting point, one value per entry.
EXPERIMENTAL READOUT: melting point (°C)

MOLECULE | EXPERIMENTAL READOUT | REPORTED RESULT
COc1ncc(-c2ccc(=O)n(Cc3ccc(Cl)cc3)c2)cn1 [2-66] | melting point | 191
CC(=O)c1ccc(-c2ccc(=O)n(Cc3ccc(F)c(F)c3)c2)cc1 [6-12] | melting point | 142
CC(=O)NCc1ccc(-c2ccc(=O)n(Cc3ccc(Cl)cc3F)c2)cc1 [6-61] | melting point | 150
N#Cc1cccc(-c2ccc(=O)n(Cc3ccc(Cl)cc3F)c2)c1 [6-25] | melting point | 140
CN(Cc1ccc(=O)n(Cc2ccc(Cl)cc2)c1)c1ccccc1 [3-07] | melting point | 106
COc1ccc(OCc2ccc(=O)n(Cc3ccc(Cl)cc3)c2)cc1 [16-02] | melting point | 114
COC(=O)COc1ccc(-c2ccc(=O)n(Cc3ccc(Cl)cc3F)c2)cc1 [6-41] | melting point | 119
COc1ccc(-c2ccc(=O)n(Cc3ccc(Cl)cc3F)c2)cc1 [4-16] | melting point | 88
O=c1ccc(-c2nc3ccccc3s2)cn1Cc1ccc(Cl)c(F)c1 [6-19] | melting point | 164
COc1ccc(-c2ccc(=O)n(Cc3ccc(Cl)cc3)c2)cc1NS(C)(=O)=O [2-56] | melting point | 151
CC(=O)c1ccc(-c2ccc(=O)n(Cc3ccc(Cl)cc3)c2)cc1 [2-30] | melting point | 162
COc1ccc(-c2ccc(=O)n(Cc3ccc(OC(F)(F)F)cc3)c2)cc1 [4-31] | melting point | 130
CS(=O)(=O)NCc1ccc(-c2ccc(=O)n(Cc3ccc(Cl)cc3F)c2)cc1 [6-73] | melting point | 165
COCc1ccc(-c2ccc(=O)n(Cc3ccc(Cl)cc3)c2)cc1 [2-24] | melting point | 109

====

Structures can show the parent of a compound that is named as a salt.

COMPOUND | melting point (°C)
COc1ccc(Cn2cc(-c3ccc(C#N)cc3)ccc2=O)cc1 | 134
O=c1ccc(-c2ccc(Cl)nc2)cn1Cc1ccc(Cl)cc1 | 169
O=c1ccc(-c2cccc([N+](=O)[O-])c2)cn1Cc1ccccc1 | 149
COc1ccc(-c2ccc(=O)n(Cc3c(F)cc(F)cc3F)c2)cc1 | 112
COc1ccc(-c2ccc(=O)n(Cc3nc4c(F)cccc4s3)c2)cc1 | 126
COc1ccc(-c2ccc(=O)n(Cc3ccc(OC)nc3)c2)cc1 (as salt: HCl) | 126
CCc1ccc(Cn2cc(-c3ccc(OC)cc3)ccc2=O)cn1 | 130
COc1ccc(-c2ccc(=O)n(Cc3ccc(Cl)nc3)c2)cc1 | 135
CN(C)c1ccc(-c2ccc(=O)n(Cc3ccc(Cl)cc3)c2)cc1 | 155
CC(=O)N(CCOc1ccc(-c2ccc(=O)n(Cc3ccc(Cl)cc3F)c2)cc1)C(C)=O | 121

====

EXPERIMENTAL READOUT: melting point (°C)

COMPOUND STRUCTURE STRING | EXPERIMENTAL READOUT | UNIT TEXT | REPORTED RESULT
COc1ccc(-c2cc(CO)c(=O)n(Cc3ccc(Cl)cc3)c2)cc1 | melting point | °C | 128
COC(=O)Oc1ccc(-c2ccc(=O)n(Cc3ccc(Cl)cc3F)c2)cc1 | melting point | °C | 124
COc1ccc(-c2ccc(=O)n(Cc3ccccc3)c2)cc1OC | melting point | °C | 120
COc1ccc(-c2ccn(Cc3cccc(F)c3)c(=O)c2)cc1 | melting point | °C | 114
O=c1ccc(-c2cccc(Cl)c2)cn1Cc1ccccc1 | melting point | °C | 120
COc1ccc(-c2ccc(=O)n(Cc3nc(-c4ccc(F)cc4)no3)c2)cc1 | melting point | °C | 123
COc1ccc(-c2ccc(=O)n(Cc3ccc(C(F)(F)F)nc3)c2)cc1.Cl | melting point | °C | 168
NCCOc1ccc(-c2ccc(=O)n(Cc3ccc(Cl)cc3F)c2)cc1 | melting point | °C | 226
CN(C)C(=O)c1ccc(-c2ccc(=O)n(Cc3ccc(Cl)cc3)c2)cc1 | melting point | °C | 176
O=c1ccc(CNc2ccccc2)cn1Cc1ccc(Cl)cc1 | melting point | °C | 142
C=Cc1ccc(-c2ccc(=O)n(Cc3ccc(Cl)cc3)c2)cc1 | melting point | °C | 125
